Where do these numbers come from? They come from paper PMC3174198.

- TGT: Chlorella virus DNA ligase (Paramecium bursaria Chlorella virus 1)
- Sequence (O41026 entry or part of it): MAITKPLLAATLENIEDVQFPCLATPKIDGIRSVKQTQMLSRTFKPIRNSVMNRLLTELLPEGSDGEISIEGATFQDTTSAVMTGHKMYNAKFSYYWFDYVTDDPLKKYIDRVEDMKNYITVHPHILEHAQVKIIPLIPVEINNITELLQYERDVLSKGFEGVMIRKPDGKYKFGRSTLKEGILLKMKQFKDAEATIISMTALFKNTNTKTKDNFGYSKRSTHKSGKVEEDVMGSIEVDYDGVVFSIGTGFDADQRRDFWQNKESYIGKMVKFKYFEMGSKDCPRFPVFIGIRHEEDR
- ASSAY PROCEDURE: Second step of ligation: AMP transfer to 5'-phosphate DNA (1-nt gapped substrate)
- Type: biochemical
- MEASUREMENT CONTEXT: enzyme pre-incubated with ATP; 1-nt gapped DNA substrate

{"columns": ["ENTRY SMILES", "IC50"],
 "data": [
  ["COc1c(C)c2c(c(O)c1C/C=C(\\C)CCC(=O)O)C(=O)OC2", "600 µM"]
]}

* * *

- TGT: Chlorella virus DNA ligase (Paramecium bursaria Chlorella virus 1)
- ASSAY PROCEDURE: First step of ligation: enzyme-AMP covalent complex formation
- Format: biochemical
- MEASUREMENT CONTEXT: enzyme-AMP covalent complex formation
- Text: An autoradiogram of the gel is shown.
pIC50: −log10 of the molar value.
PROPERTY NAME: pIC50

{"columns": ["ENTRY SMILES", "RECORDED MEASUREMENT"],
 "data": [
  ["COc1c(C)c2c(c(O)c1C/C=C(\\C)CCC(=O)O)C(=O)OC2", "~2.52"]
]}

* * *

- TGT: GTase of S. cerevisiae (Ceg1 protein) (Saccharomyces cerevisiae, UniProt Q01159)
- Construct: made in house
- Sequence (Q01159 whole entry): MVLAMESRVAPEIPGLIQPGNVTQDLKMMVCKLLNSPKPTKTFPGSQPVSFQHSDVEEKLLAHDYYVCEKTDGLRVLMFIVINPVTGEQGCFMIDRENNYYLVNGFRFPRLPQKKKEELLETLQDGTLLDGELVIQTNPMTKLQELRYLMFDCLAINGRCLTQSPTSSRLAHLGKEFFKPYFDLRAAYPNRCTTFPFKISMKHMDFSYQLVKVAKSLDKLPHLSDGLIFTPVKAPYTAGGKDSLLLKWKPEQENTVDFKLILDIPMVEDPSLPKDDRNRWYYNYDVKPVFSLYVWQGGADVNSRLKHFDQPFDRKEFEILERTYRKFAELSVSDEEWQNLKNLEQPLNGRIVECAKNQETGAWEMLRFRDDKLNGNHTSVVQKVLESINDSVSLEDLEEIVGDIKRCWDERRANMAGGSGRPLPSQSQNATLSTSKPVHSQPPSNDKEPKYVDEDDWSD
- ASSAY PROCEDURE: Second step of GTase reaction: transfer of GMP onto acceptor RNA
- Assay type: biochemical
- MEASUREMENT CONTEXT: enzyme pre-incubated with GTP, then acceptor 5'-diphosphate RNA added with MPA

{"columns": ["ENTRY SMILES", "READOUT UNIT", "IC50"],
 "data": [
  ["COc1c(C)c2c(c(O)c1C/C=C(\\C)CCC(=O)O)C(=O)OC2", "µM", 640]
]}

* * *

- TGT: yeast GTase enzyme-GMP complex (Saccharomyces cerevisiae, UniProt Q01159)
- Construct: made in house
- Sequence (Q01159 whole entry, one chain of several): as the sequence (Q01159 whole entry) above
- ASSAY PROCEDURE: UV-crosslinking of radiolabelled RNA to the enzyme-GMP complex
- Set-up: species or system S. cerevisiae
- MEASUREMENT CONTEXT: 81 nt 5'-triphosphate radiolabelled RNA (3 µM), read-out: IC50 for inhibition of RNA binding to the enzyme-GMP complex
pIC50: −log10 of the molar value.

{"columns": ["COMPOUND", "TGT", "pIC50"],
 "data": [
  ["COc1c(C)c2c(c(O)c1C/C=C(\\C)CCC(=O)O)C(=O)OC2 [MPA, mycophenolic acid]", "yeast GTase enzyme-GMP complex (Saccharomyces cerevisiae, UniProt Q01159)", 3.39]
]}

* * *

- TGT: RNA guanylyltransferase from Chlorella virus (A103R) (Paramecium bursaria Chlorella virus 1, UniProt Q84424)
- Sequence (Q84424 whole entry, stated change not applied): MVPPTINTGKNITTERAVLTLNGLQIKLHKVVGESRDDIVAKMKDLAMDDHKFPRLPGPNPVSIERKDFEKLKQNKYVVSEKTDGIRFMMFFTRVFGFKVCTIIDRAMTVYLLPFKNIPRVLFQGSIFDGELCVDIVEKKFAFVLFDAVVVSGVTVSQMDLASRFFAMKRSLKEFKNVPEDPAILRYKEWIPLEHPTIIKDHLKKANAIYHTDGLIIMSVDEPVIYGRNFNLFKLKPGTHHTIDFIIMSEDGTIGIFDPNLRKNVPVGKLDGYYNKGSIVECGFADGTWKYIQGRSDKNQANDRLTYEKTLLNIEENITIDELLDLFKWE
- ASSAY PROCEDURE: First and second step of the GTase reaction, Chlorella enzyme
PROPERTY NAME: IC50

{"columns": ["ENTRY SMILES", "PROPERTY NAME", "RECORDED MEASUREMENT"],
 "data": [
  ["COc1c(C)c2c(c(O)c1C/C=C(\\C)CCC(=O)O)C(=O)OC2", "IC50", "~3 mM"]
]}

* * *

- TGT: GTase of S. cerevisiae (Ceg1 protein) (Saccharomyces cerevisiae, UniProt Q01159)
- Construct: made in house
- ASSAY PROCEDURE: Complete RNA guanylyltransferase reaction (both steps), standard GTase assay
- Type: biochemical
PROPERTY NAME: IC50

{"columns": ["ENTRY SMILES", "PROPERTY NAME", "RECORDED MEASUREMENT"],
 "data": [
  ["COc1c(C)c2c(c(O)c1C/C=C(\\C)CCC(=O)O)C(=O)OC2", "IC50", "360 µM"]
]}
